Ref: patent US5786462

molecular target: HIV-1 reverse transcriptase (Human immunodeficiency virus 1) (UniProt P03366+P03366); assay: filter; settings: apparent Kd, HRT buffer 37 C
measured.attribute: Kd (nM)

| sequence.entry | unit.info | meas.value |
| --- | --- | --- |
| ATCCGCCTGATTAGCGATACTNNNNNNNNNNNNNNNNNNNNNNNNNNNNNNNNNNNACTTGAGCAAAATCACCTGCAGGGG [RO degenerate ssDNA library] | nM | 1400 |
